biological target: human CatSper (Homo sapiens, UniProt Q7RTX7+Q86XQ3+Q8NEC5+Q96P56); construct: isolated motile sperm cells from freshly ejaculated semen samples of healthy human donors; endogenous in cells; experiment: Inhibition of CatSper activation in human sperm cells, Ca2+-fluorophore plate reader assay; details: motile human sperm cells (swim-up), Ca2+-fluorophore; CatSper activated by 500 nM progesterone; dose inhibition curve; read-out: IC50, inhibition of progesterone-induced signals through CatSper
VALUE_TYPE: IC50

COMPOUND_STRUCTURE_STRING: COc1cc(C(=O)NS(=O)(=O)c2ccccc2C)ccc1Cc1cn(C)c2ccc(NC(=O)OC3CCCC3)cc12
OBSERVED: ~2200 nM

Next compound, please.
Sample COc1cc(C(=O)NS(=O)(=O)c2ccccc2C)ccc1Cc1cn(C)c2ccc(N)cc12 , system: human CatSper (Homo sapiens, UniProt Q7RTX7+Q86XQ3+Q8NEC5+Q96P56). Its IC50 is ~900 nM
